test: Bioavailability in mouse at 10 mg/kg, ip
Type: ADME, organism-based
conditionSummary: in vivo
testReadout: bioavailability (%)

                               samplesmiles   val
0  Cc1ccc(S(=O)(=O)NCCCN2c3ccccc3Sc3ccc(Cl)cc32)cc1  50.2
1       COC(=O)NCCCN1c2ccccc2Sc2ccc(Cl)cc21  46.6

* * *

test: Half life in mouse at 10 mg/kg, po
Type: ADME, organism-based
conditionSummary: in vivo
testReadout: half-life (h)

(I) Cc1ccc(S(=O)(=O)NCCCN2c3ccccc3Sc3ccc(Cl)cc32)cc1
(II) COC(=O)NCCCN1c2ccccc2Sc2ccc(Cl)cc21
IN: Lower value of half-life belongs to which: I or II ? Write down the label of the entry you select.
OUT: II
(II: 1.19 h, I: 3.14 h)

* * *

test: AUCinfinity in mouse at 10 mg/kg, po
Assay type: ADME, organism-based
Parameters: dose 10 mg/kg, time infinity, route oral
conditionSummary: in vivo
testReadout: AUC(0-inf) (ng·h/mL)

(I) Cc1ccc(S(=O)(=O)NCCCN2c3ccccc3Sc3ccc(Cl)cc32)cc1
(II) COC(=O)NCCCN1c2ccccc2Sc2ccc(Cl)cc21
IN: Between I and II , whose recorded AUC(0-inf) is greater? Write down the label of the entry you select.
OUT: I

* * *

tgt: D(1B) dopamine receptor (Homo sapiens) (UniProt P21918)
Sequence (P21918 whole entry): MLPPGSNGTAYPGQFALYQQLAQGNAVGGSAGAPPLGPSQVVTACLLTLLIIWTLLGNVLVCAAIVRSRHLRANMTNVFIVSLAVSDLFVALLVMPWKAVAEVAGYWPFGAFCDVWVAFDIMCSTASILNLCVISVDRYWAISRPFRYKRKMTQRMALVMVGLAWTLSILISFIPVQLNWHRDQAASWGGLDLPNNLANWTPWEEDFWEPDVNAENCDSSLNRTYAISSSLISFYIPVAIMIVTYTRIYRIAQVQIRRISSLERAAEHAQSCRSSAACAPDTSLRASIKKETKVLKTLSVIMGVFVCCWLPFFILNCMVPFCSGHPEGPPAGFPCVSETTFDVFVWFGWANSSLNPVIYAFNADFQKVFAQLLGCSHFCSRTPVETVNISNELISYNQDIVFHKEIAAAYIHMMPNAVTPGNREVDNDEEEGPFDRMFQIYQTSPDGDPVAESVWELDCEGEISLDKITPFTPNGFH
test: Binding affinity to dopamine D5 receptor (unknown origin) at 0.1 mM by radioligand displacement assay relative to control
testReadout: inhibition

Look over these answered cases.
In [3]: df
Out[3]:
                               samplesmiles  testreadout    val
0      COC(=O)NCCCN1c2ccccc2CCc2ccc(Cl)cc21   inhibition  < 10%
1  Cc1ccc(S(=O)(=O)NCCCN2c3ccccc3CCc3ccc(Cl)cc32)cc1   inhibition  < 10%
2  CN1CCN(CCCN2c3ccccc3Sc3ccc(C(F)(F)F)cc32)CC1   inhibition    81%
3       COC(=O)NCCCN1c2ccccc2Sc2ccc(Cl)cc21   inhibition  < 10%

// below: inhibition requested for another molecule
IN: Can you share its inhibition? I mean this molecule: Cc1ccc(S(=O)(=O)NCCCN2c3ccccc3Sc3ccc(Cl)cc32)cc1
OUT: < 10%

* * *

test: Initial drug concentration in mouse at 1 mg/kg, iv
Assay type: ADME, organism-based
conditionSummary: in vivo
testReadout: C0 (ng/mL)

(1) Cc1ccc(S(=O)(=O)NCCCN2c3ccccc3Sc3ccc(Cl)cc32)cc1
(2) COC(=O)NCCCN1c2ccccc2Sc2ccc(Cl)cc21
IN: Lower value of C0 belongs to which: 1 or 2 ? Write down the label of the entry you select.
OUT: 2
(2: 1200 ng/mL, 1: 2970 ng/mL)

* * *

test: AUClast in mouse at 100 mg/kg, ip administered through DMSO
Type: ADME, organism-based
conditionSummary: in vivo
testReadout: AUC(0-t) (ng·h/mL)
Entry rule: numbers only, all in ng·h/mL.

IN: Can you share its AUC(0-t)? I mean this molecule: O=S(=O)(NCCCN1c2ccccc2CCc2ccc(Cl)cc21)c1ccc(OC(F)(F)F)cc1
OUT: 38800

* * *

test: AUCinfinity in mouse at 1 mg/kg, iv
Assay type: ADME, organism-based
Parameters: dose 1 mg/kg, time infinity, route intravenous
conditionSummary: in vivo
testReadout: AUC(0-inf) (ng·h/mL)

>>> df
                               samplesmiles  val
0  O=S(=O)(NC[C@H](O)CN1c2ccccc2CCc2ccccc21)c1ccc(OC(F)(F)F)cc1  376
1  O=S(=O)(NCCCN1c2ccccc2CCc2ccc(Cl)cc21)c1ccc(OC(F)(F)F)cc1  399

(A) Cc1ccc(S(=O)(=O)NCCCN2c3ccccc3Sc3ccc(Cl)cc32)cc1
(B) COC(=O)NCCCN1c2ccccc2Sc2ccc(Cl)cc21
IN: Between A and B , whose recorded AUC(0-inf) is greater? Write down the label of the entry you select.
OUT: A

* * *

test: AUClast in mouse at 25 mg/kg, ip
Type: ADME, organism-based
conditionSummary: in vivo
Listed molecules paired with reported AUC(0-t)
Entry rule: numbers only, all in ng·h/mL.

>>> print(df.to_string())
                               samplesmiles   val
0  O=S(=O)(NCCCN1c2ccccc2CCc2ccc(Cl)cc21)c1ccc(OC(F)(F)F)cc1  3570

// below: AUC(0-t) requested for another molecule
IN: Can you share its AUC(0-t)? I mean this molecule: O=S(=O)(NC[C@H](O)CN1c2ccccc2CCc2ccccc21)c1ccc(OC(F)(F)F)cc1
OUT: 5700

* * *

test: AUClast in mouse at 10 mg/kg, po
Assay type: ADME, organism-based
conditionSummary: in vivo
testReadout: AUC(0-t) (ng·h/mL)

(I) COC(=O)NCCCN1c2ccccc2Sc2ccc(Cl)cc21
(II) Cc1ccc(S(=O)(=O)NCCCN2c3ccccc3Sc3ccc(Cl)cc32)cc1
IN: Lower value of AUC(0-t) belongs to which: I or II ? Write down the label of the entry you select.
OUT: I

* * *

test: AUCinfinity in mouse at 25 mg/kg, ip
Format: ADME, organism-based
Design: dose 25 mg/kg, time infinity, route intraperitoneal
conditionSummary: in vivo
Listed compounds paired with reported AUC(0-inf)
Entry rule: numbers only, all in ng·h/mL.

                               samplesmiles   val
0  O=S(=O)(NCCCN1c2ccccc2CCc2ccc(Cl)cc21)c1ccc(OC(F)(F)F)cc1  3680

// below: AUC(0-inf) requested for another compound
IN: Can you share its AUC(0-inf)? I mean this compound: O=S(=O)(NC[C@H](O)CN1c2ccccc2CCc2ccccc21)c1ccc(OC(F)(F)F)cc1
OUT: 5790

* * *

test: Tmax in mouse at 10 mg/kg, po
Assay type: ADME, organism-based
conditionSummary: in vivo
testReadout: Tmax (min)

>>> df
                               samplesmiles  testreadout  val
0  Cc1ccc(S(=O)(=O)NCCCN2c3ccccc3Sc3ccc(Cl)cc32)cc1         Tmax   30
1       COC(=O)NCCCN1c2ccccc2Sc2ccc(Cl)cc21         Tmax   30

* * *

test: AUCinfinity in mouse at 100 mg/kg, ip administered through DMSO
Format: ADME, organism-based
Parameters: dose 100 mg/kg, time infinity, route intraperitoneal
conditionSummary: in vivo
testReadout: AUC(0-inf) (ng·h/mL)
Entry rule: numbers only, all in ng·h/mL.

IN: Can you share its AUC(0-inf)? I mean this compound: O=S(=O)(NCCCN1c2ccccc2CCc2ccc(Cl)cc21)c1ccc(OC(F)(F)F)cc1
OUT: 40700

* * *

Listed compounds paired with reported Tmax
test: Tmax in mouse at 25 mg/kg, ip
Format: ADME, organism-based
conditionSummary: in vivo
Entry rule: numbers only, all in h.

>>> print(df.to_string())
                               samplesmiles  resultunits  val
0  O=S(=O)(NCCCN1c2ccccc2CCc2ccc(Cl)cc21)c1ccc(OC(F)(F)F)cc1            h    1

IN: Can you share its Tmax? I mean this compound: O=S(=O)(NC[C@H](O)CN1c2ccccc2CCc2ccccc21)c1ccc(OC(F)(F)F)cc1
OUT: 1

* * *

test: AUCinfinity in mouse at 1 mg/kg, ip
Type: ADME, organism-based
Set-up: time infinity, route intraperitoneal
conditionSummary: in vivo
testReadout: AUC(0-inf) (ng·h/mL)

(A) Cc1ccc(S(=O)(=O)NCCCN2c3ccccc3Sc3ccc(Cl)cc32)cc1
(B) COC(=O)NCCCN1c2ccccc2Sc2ccc(Cl)cc21
IN: Lower value of AUC(0-inf) belongs to which: A or B ? Write down the label of the entry you select.
OUT: B

* * *

Listed compounds paired with reported Cmax
test: Cmax in mouse at 25 mg/kg, ip
Assay type: ADME, organism-based
Design: dose 25 mg/kg, route intraperitoneal
conditionSummary: in vivo
Entry rule: numbers only, all in ng/mL.

                               samplesmiles  testreadout   val
0  O=S(=O)(NC[C@H](O)CN1c2ccccc2CCc2ccccc21)c1ccc(OC(F)(F)F)cc1         Cmax  2240

// below: Cmax requested for another compound
IN: Can you share its Cmax? I mean this compound: O=S(=O)(NCCCN1c2ccccc2CCc2ccc(Cl)cc21)c1ccc(OC(F)(F)F)cc1
OUT: 754

* * *

test: Cmax in mouse at 10 mg/kg, po
Type: ADME, organism-based
Parameters: dose 10 mg/kg, route oral
conditionSummary: in vivo
testReadout: Cmax (ng/mL)

(1) Cc1ccc(S(=O)(=O)NCCCN2c3ccccc3Sc3ccc(Cl)cc32)cc1
(2) COC(=O)NCCCN1c2ccccc2Sc2ccc(Cl)cc21
IN: Between 1 and 2 , whose recorded Cmax is greater? Write down the label of the entry you select.
OUT: 1
